tested on: NCI-H522 lung; test: NCI tumour cell line growth inhibition, 48 h
readout: GI50

Consider the following illustrative entries.
- CCNC(=O)Nc1ccc(Oc2ccnc3ccc4c(ccn4C)c23)cc1: 43.8 µM
- COc1ccc(Sc2nc3cc(N)cc(N)c3nc2-c2ccccc2)cc1: 3.2 µM
- COc1ccc2cc(C(=O)/C=C/c3ccc(N(C)C)cc3)ccc2c1: 39.1 µM
- C=C1C(=O)O[C@H]2[C@H]1CC/C(C=Nc1c(N)cc(C(F)(F)F)cc1C(F)(F)F)=C\CC[C@@]1(C)O[C@@H]21: 1.66 µM

# ---- query compound ----
Data point: "COc1ccc2c(O)c(/C=C3\N=Nc4ccccc43)oc2c1C[C@@H]1CCNC[C@H]1F" ; GI50 = 1.67 µM
